Test system: monoclonal antibody 10-15-63
assay protocol: Immunoprecipitation of [125I] synthetic peptides by 10-15-63
Format: binding, mouse
measurement setup: 10-15-63 100.0 μg/ml final
Method: Synthetic peptides were radiolabeled with ^125I (Amersham) by the chloramine T method (N. M. Hunter, “Radioimmunoassay” in D. M. Weir, Ed., Handbook of Experimental Immunology, [Blackwell Scientific Publications, 1973]). Generally, 2-6 ul of 100 mCi/ml ^125I were added to 10-50 ug of peptide in PBS, pH 7.4. Approximately 10 ug of freshly prepared (1 mg/ml in PBS) chloramine T were added to the mixture maintained at 4° C. […]
readout label: SPECIFIC PRECIPITATION (CPM)

INSERT INTO results (substance, test_value) VALUES
  ('IHSLIEESQNQQEKNEQELLELDK [P131-154]', 112),
  ('YNYTSLIHSLIEESQNQQEKNEQELLELDKWANLWNWL [P126-162]', 0),
  ('ARILAVERYLKDQQLLGIWGCSGKLICTTAVPWNASWSNKSLEQIWNNMTWMEWDREINNYSLIHSLIEESQNQQEKNELLELNK [P67-154]', 0),
  ('NH2-Asp-Arg-Glu-Ile-Asn-Asn-Tyr-Thr-Ser-Leu-Ile-His-Ser-Leu-Ile-Glu-Glu -Ser-Gln-Asn-Gln-Gln-Glu-Lys-Asn-Glu-Gln-Glu-Leu-Leu-Glu-Leu-Asp-Lys-COOH (H-DREINNYTSLIHSLIEESQNQQEKNEQELLELDK-OH) [P121-154]', 0);
